Test system: Abutilon theophrasti (ABUTH)
ASSAY SUMMARY: Pre-emergence herbicidal activity (B1)
Type: in vivo
CONDITION NOTES: Test 1b, 1000 g/ha, evaluated after 13 days, 5=total damage to plant, 0=no damage to plant
MEASURE NAME: ABUTH damage score
Write the number on its own, no unit after it.

Solved cases below.
# COMPOUND, ABUTH damage score
rows = [
    ("CNc1ccc(-c2cncc(C(F)(F)F)c2)nc1C(F)(F)F", 1),
    ("CC(Nc1ccc(-c2cncc(F)c2)nc1C(F)(F)F)c1ccccc1 (stereo not shown)", 0),
    ("Fc1cncc(-c2ccc(NCC3CC3)c(C(F)(F)F)n2)c1", 1),
    ("Fc1ccc(CNc2ccc(-c3cncc(F)c3)nc2C(F)(F)F)cc1", 1),
    ("CC#CCNc1ccc(-c2cncc(F)c2)nc1C(F)(F)F", 0),
]

input: Field request: ABUTH damage score | item: Cc1nc(-c2cncnc2)ccc1N
output: 0

input: Requested read-out: ABUTH damage score. Entry: Fc1cncc(-c2ccc(NCc3ccc(Cl)cc3)c(C(F)(F)F)n2)c1
output: 0

input: Entry N#Cc1nc(-c2cncc(F)c2)ccc1N : reported ABUTH damage score = ?
output: 1

input: // returns reported ABUTH damage score for input CC(Nc1ccc(-c2cncc(F)c2)nc1C(F)(F)F)c1cccc(C(F)(F)F)c1 (stereo not shown)
output: 0

* * *

Test system: Amaranthus retroflexus (AMARE)
ASSAY SUMMARY: Post-emergence herbicidal activity (B2)
Type: in vivo
CONDITION NOTES: Test B2b, 1000 g/ha, evaluated after 13 days, 5=total damage to plant, 0=no damage to plant
MEASURE NAME: AMARE damage score
Answer field: number only, no words.

// known answers, use as guide
# ENTRY SMILES, AMARE damage score
rows = [
    ("COC(=O)CNc1ccc(-c2cncc(F)c2)nc1C(F)(F)F", 3),
    ("CNc1ccc(-c2cncnc2)nc1C", 1),
    ("Fc1cncc(-c2ccc(NCC3CC3)c(C(F)(F)F)n2)c1", 2),
    ("Cc1nc(-c2cncc(F)c2)ccc1N", 0),
    ("Cc1ccc(CNc2ccc(-c3cncc(F)c3)nc2C(F)(F)F)cc1", 0),
]

Shift focus to the following entry.
input: Could you share which AMARE damage score value was measured for Fc1cncc(-c2ccc(NCc3cccc(Cl)c3)c(C(F)(F)F)n2)c1 ?
output: 0

* * *

System: Abutilon theophrasti (ABUTH)
ASSAY SUMMARY: Pre-emergence herbicidal activity (B1)
Type: in vivo
CONDITION NOTES: Test 1b, 1000 g/ha, evaluated after 13 days, 5=total damage to plant, 0=no damage to plant
Examples of molecules with documented ABUTH damage score follow.
Kindly provide the number alone.

# MOLECULE, MEASURE NAME, VALUE MEASURED
measured = [
    ("CNc1ccc(-c2cncnc2)nc1C [Compound A15]", "ABUTH damage score", 0),
]

input: So what's the measured ABUTH damage score for this one? CCNc1ccc(-c2cncc(F)c2)nc1C(F)(F)F [Compound A27]
output: 0

input: What does the record list as ABUTH damage score for Fc1cncc(-c2ccc(Nc3ccccc3)c(C(F)(F)F)n2)c1 [Compound A32] ?
output: 1

input: Please report the recorded ABUTH damage score for CNc1ccc(-c2cncc(C)c2)nc1C(F)(F)F [Compound A6] .
output: 1

input: Return reported ABUTH damage score; argument: COc1cncc(-c2ccc(N)c(C)n2)c1 [Compound A13]
output: 0

input: Give the measured ABUTH damage score of Fc1cncc(-c2ccc(NCc3ccc(F)cc3F)c(C(F)(F)F)n2)c1 [Compound A28] .
output: 0

input: I would be grateful if you could share the reported ABUTH damage score for CNc1ccc(-c2cncnc2)nc1C(F)(F)F [Compound A34] .
output: 0

input: Given the entry Fc1cncc(-c2ccc(NCc3ccc(C(F)(F)F)cc3)c(C(F)(F)F)n2)c1 [Compound A26] , report its measured ABUTH damage score.
output: 0

input: For Nc1ccc(-c2cncnc2)nc1C(F)(F)F [Compound A35] , what is its reported ABUTH damage score?
output: 0

input: Data request, read-out ABUTH damage score, for Cc1ccc(CNc2ccc(-c3cncc(F)c3)nc2C(F)(F)F)cc1 [Compound A20]
output: 0

* * *

Tested on: Amaranthus retroflexus (AMARE)
ASSAY SUMMARY: Post-emergence herbicidal activity (B2)
Format: in vivo
CONDITION NOTES: Test B2b, 1000 g/ha, evaluated after 13 days, 5=total damage to plant, 0=no damage to plant
A collection of compounds and their measured AMARE damage score
Output spec: single numeric token, no unit.

Recorded results for 2 compounds are shown here.
# ENTRY SMILES, AMARE damage score
records = [
    ("Fc1cncc(-c2ccc(NCc3ccccc3)c(C(F)(F)F)n2)c1", 1),
    ("CCNc1ccc(-c2cncc(F)c2)nc1C(F)(F)F", 0),
]

With those in mind, consider the next compound.
input: Endpoint output: AMARE damage score of Fc1cncc(-c2ccc(NCc3ccc(C(F)(F)F)cc3)c(C(F)(F)F)n2)c1 . Value?
output: 0

* * *

System: Abutilon theophrasti (ABUTH)
ASSAY SUMMARY: Pre-emergence herbicidal activity (B1)
Assay type: in vivo
CONDITION NOTES: Test 1b, 1000 g/ha, evaluated after 13 days, 5=total damage to plant, 0=no damage to plant
Measured ABUTH damage score by item
Respond numerically, and do not add a unit to the figure.

Recorded results for 4 compounds are shown here.
# COMPOUND, ABUTH damage score
data = [
    ("Cc1nc(-c2cccnc2)ccc1N [Compound A36]", 1),
    ("COC(=O)CNc1ccc(-c2cncc(F)c2)nc1C(F)(F)F [Compound A22]", 0),
    ("CNc1ccc(-c2cncc(F)c2)nc1C(F)(F)F [Compound A5]", 1),
    ("CNc1ccc(-c2cccnc2)nc1C(F)(F)F [Compound A11]", 1),
]

input: Checklist item: ABUTH damage score tested on Abutilon theophrasti (ABUTH), entry C=CCNc1ccc(-c2cncc(F)c2)nc1C(F)(F)F [Compound A25] , value?
output: 0

input: Hi! What's the reported ABUTH damage score for Cc1nc(-c2cncc(C(F)(F)F)c2)ccc1N [Compound A12] on Abutilon theophrasti (ABUTH)?
output: 0

input: Write down the reported ABUTH damage score of Nc1ccc(-c2cncc(F)c2)nc1C(F)(F)F [Compound A33] , test system: Abutilon theophrasti (ABUTH).
output: 0

input: Provide the documented ABUTH damage score with Abutilon theophrasti (ABUTH) as the system for COC(=O)C(C)Nc1ccc(-c2cncc(F)c2)nc1C(F)(F)F (stereo not drawn) [Compound A19]
output: 0

input: Param readout= ABUTH damage score; system= Abutilon theophrasti (ABUTH); entry= Fc1cncc(-c2ccc(NCc3ccccc3)c(C(F)(F)F)n2)c1 [Compound A21] ; returns value.
output: 0

Recorded values, source patent US10986838B2.
